- Test system: A549 NSCLC
- protocol: NCI tumour cell line growth inhibition, 48 h
measured-property: TGI

# compound, assayed-system, assay-value
records = [
    ("C=C(NC(=O)C(=C)NC(=O)c1ccc2c(n1)-c1coc(n1)C(=C)NC(=O)C(=C)NC(=O)c1nc(oc1C)C(=C)NC(=O)C(C(C)(C)O)NC(=O)C(=C)NC(=O)c1coc(n1)/C(=C/C)NC(=O)[C@H]([C@@H](C)O)NC(=O)c1csc-2n1)C(N)=O (some centres undefined)", "A549 NSCLC", "> 87.5 µM"),
    ("Cc1cc(Cl)ccc1NC(=O)CCCC(=O)C1C/C(=N/O)CC/C1=N\\O (centres undefined)", "A549 NSCLC", "> 100 µM"),
    ("N#Cc1c(NC(=S)Nc2ccc(Cl)cc2)sc2c1CCN(N1CCc3c(sc(NC(=S)Nc4ccc(Cl)cc4)c3C#N)C1)C2", "A549 NSCLC", "> 100 µM"),
    ("Cc1ccccc1NC(=O)CSc1nnc(-c2ccc(N=Cc3ccc(Cl)cc3)cc2)o1", "A549 NSCLC", "> 100 µM"),
    ("COc1ccc(-n2c(=S)sc3c(Cl)nc(C)nc32)c(OC)c1", "A549 NSCLC", "15.8 µM"),
    ("O=C(CC1=Nc2nnc(CCCCCCCc3nnc4n3C(=O)C(CC(=O)c3ccc5ccccc5c3)=N4)n2C1=O)c1ccc2ccccc2c1", "A549 NSCLC", "> 100 µM"),
    ("O=C1c2cc3c(cc2-c2c1c1cc(F)c(F)cc1c(=O)n2CCCn1ccnc1)OCO3", "A549 NSCLC", "1.32 µM"),
    ("Cc1cn(CCCCCCOC(=O)NC(CCCNC(N)=O)C(=O)O)c(=O)[nH]c1=O (centres undefined)", "A549 NSCLC", "> 100 µM"),
    ("COC(=O)C(C(=O)C(=O)Nc1c(C)cccc1C(C)(C)C)c1nc2ccc(Cl)cc2[nH]c1=O (centres undefined)", "A549 NSCLC", "> 100 µM"),
]
